molecular target: Human HPK1, catalytic domain (Homo sapiens)
pIC50: −log10 of the molar value.
Would you mind labelling by pIC50? At or over 8 is 1, under is -1.

Is the recorded value of pIC50 equal to or greater than 8 for this compound? COc1cc2c(cc1Nc1ncc3ccc(-c4cccc(S(=O)(=O)N5CCOCC5)c4)cc3n1)CNCC2
-1

Continue with COc1cc2c(cc1Nc1ncc3ccc(-c4cc(C#N)ccc4F)cc3n1)CNCC2
-1

Continue with COc1cc2c(cc1Nc1ncc3ccc(-c4cc(N)ccc4C)cc3n1)CNCC2
-1

Continue with CCS(=O)(=O)Cc1ccc(Nc2ncc3c(N)c(F)c(-c4cnc5c(c4C)NCCO5)c(Cl)c3n2)cc1 [Compound 2-140]
1

Continue with Cc1c(-c2c(F)c(N)c3cnc(Nc4ccc(CS(C)(=O)=O)cc4F)nc3c2Cl)cnc2c1NCCO2 (single isomer, unassigned) [Compound 2-131]
1

Continue with COc1cc2c(cc1Nc1ncc3ccc(-c4cccc(-c5cn[nH]c5)c4)cc3n1)CNCC2
-1

Continue with Cc1c(-c2cc3nc(Nc4ccc(CS(=O)(=O)N5CCCC5)cc4)ncc3c(N)c2F)cnc2c1NCCO2
1

Continue with CC(=O)N1CCCc2cc(Nc3ncc4c(N)c(F)c(-c5cnc6c(c5C)NCCO6)cc4n3)ccc21
1

Continue with Cc1c(-c2cc3nc(Nc4cc5c(cc4F)CCN(C)C5)ncc3c(N)c2F)cnc2c1NCCO2
1

Continue with Cc1c(-c2c(F)c(N)c3cnc(Nc4ccc5c(c4)CN(C)CC5)nc3c2Cl)cnc2c1NCCO2 [Compound 2-95]
1

Continue with CCNS(=O)(=O)c1cccc(-c2ccc3cnc(Nc4cc5c(cc4OC)CCNC5)nc3c2)c1
-1

Continue with COc1cc2c(cc1Nc1ncc3ccc(N4C(=O)OC[C@@H]4C)cc3n1)CN(C)CC2
1

Continue with Cc1ccc(F)cc1-c1cc2nc(Nc3ccc(CS(C)(=O)=O)cc3)ncc2c(N)c1F
-1

Continue with COc1cc2c(cc1Nc1ncc3ccc(Nc4ccc5c(c4)C(=O)NCC5)cc3n1)CN(C)CC2
-1

Continue with COc1cncc(-c2ccc3cnc(Nc4cc5c(cc4OC)CCN(C)C5)nc3c2)c1
-1

----------
Biological target: Human HPK1, catalytic domain (Homo sapiens)
Sequence (Q92918 1-346): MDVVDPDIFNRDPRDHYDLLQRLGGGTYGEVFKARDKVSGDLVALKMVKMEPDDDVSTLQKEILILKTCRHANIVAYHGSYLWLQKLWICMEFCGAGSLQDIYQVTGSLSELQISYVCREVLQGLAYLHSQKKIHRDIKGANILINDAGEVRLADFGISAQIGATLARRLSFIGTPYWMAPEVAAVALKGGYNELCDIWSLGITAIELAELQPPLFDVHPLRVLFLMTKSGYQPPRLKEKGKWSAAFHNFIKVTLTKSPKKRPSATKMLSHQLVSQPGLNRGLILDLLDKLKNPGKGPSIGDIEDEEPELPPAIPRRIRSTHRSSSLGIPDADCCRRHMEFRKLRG
readout name: IC50 (nM)
Numeric answer only, unit nM assumed.

Would you mind telling me what IC50 value was observed for CCc1ccc(Nc2ncc3c(N)c(F)c(-c4cnc5c(c4C)NCCO5)cc3n2)cn1 [Compound 2-173] ?
0.128

Continue with COc1cc2c(cc1Nc1ncc3ccc(-c4ccccc4)cc3n1)CN(C)CC2 [Compound 1-1]
140

Continue with COc1cc2c(cc1Nc1ncc3ccc(-c4cnc(C(C)(C)O)s4)cc3n1)CN(C)CC2 [Compound 1-15]
42.7

Continue with COc1cc2c(cc1Nc1ncc3ccc(-c4cccc(CN5CCCCC5)c4)cc3n1)CNCC2 [Compound 1-69]
215
